tested on: Mycobacterium tuberculosis; test: MMV: Screen against Mtb, single point, non replicating, at 25uM; type: functional
ENDPOINT NAME: inhibition at 25 µM (%)
Please state the figure in %; there is no need to write the unit.

[[record]]
compound = "CCOC(=O)C1=C(c2ccccc2)N=c2sc(=Cc3cc(C)n(-c4ccc(F)cc4)c3C)c(=O)n2C1c1cccc(OC)c1OC (centres undefined)"
system_under_test = "Mycobacterium tuberculosis"
endpoint_name = "inhibition at 25 µM"
output_unit = "%"
recorded_result = 6.1

[[record]]
compound = "COc1ccc(CCN2C(=O)c3[nH]nc(-c4cc(Cl)c(C)cc4O)c3C2c2ccccc2F)cc1 (centres undefined)"
system_under_test = "Mycobacterium tuberculosis"
endpoint_name = "inhibition at 25 µM"
output_unit = "%"
recorded_result = 16.2

[[record]]
compound = "COc1ccc2c(c1OC)C(=O)N1c3ccccc3N=C(c3ccc(C)cc3)CC21 (centres undefined)"
system_under_test = "Mycobacterium tuberculosis"
endpoint_name = "inhibition at 25 µM"
output_unit = "%"
recorded_result = 15.2

[[record]]
compound = "O=C(Nc1ccccc1O)c1ccc(-c2ccc(Cl)cc2Cl)o1"
system_under_test = "Mycobacterium tuberculosis"
endpoint_name = "inhibition at 25 µM"
output_unit = "%"
recorded_result = 27.6


Summary for this compound, `COc1ccccc1NC1=C(N2CCCCC2)C(=O)c2ccccc2C1=O` : inhibition at 25 µM is 24.8

inhibition at 25 µM recorded for this compound, `Cc1ccc(N2C3c4ccccc4N(S(=O)(=O)c4ccc(C)cc4)C2c2ccccc2N3S(=O)(=O)c2ccc(C)cc2)cc1` , is 18

So, `O=C(Nc1ccc(C23CC4CC(CC(c5ccccc5)(C4)C2)C3)cc1)c1cccs1` ? Its inhibition at 25 µM was -0.283

Given item `Cc1ccc(CN2CCC(C(=O)Nc3ccc(-c4cc5ccccc5[nH]4)cc3)CC2)o1` , the value recorded as its inhibition at 25 µM is 22.9

// inhibition at 25 µM lookup, compound = COc1cc2c3cc1Oc1c(OC)c(OC)cc4c1C(Cc1ccc(O)c(c1)Oc1ccc(cc1)CC3N(C)CC2)N(C)CC4 (centres undefined) , result: 18.5

====

test system: Mycobacterium tuberculosis; test: MMV: Screen against Mtb, single point, non replicating, at 25uM; assay type: functional
ENDPOINT NAME: inhibition at 25 µM (%)
Reply with just the number (in %).

[[record]]
compound = "CCCCNc1nc(NC(C)(C)C)nc(NC(C)(C)C)n1"
recorded_result = 42.1

[[record]]
compound = "CCc1ccc(CNCC(O)c2ccccc2)cc1 (stereo unspecified)"
recorded_result = 4.33

[[record]]
compound = "COc1ccc(C(C)=O)cc1N1C(=O)C2C(C1=O)C1(c3ccccc3)C(=O)C2(c2ccccc2)C(c2ccc(C)cc2)=C1c1ccc(C)cc1 (stereo unspecified)"
recorded_result = 28.1

[[record]]
compound = "CCCc1c(CC)c(=N)c2ccccc2n1C"
recorded_result = 4


Looking up `Cc1cc(N2CCN(C3CCCC3)CC2)n2c(nc3ccccc32)c1C#N` , I see its inhibition at 25 µM listed as 11.5

Sample COc1ccc(C(=O)NC(c2ccccc2Cl)c2cc(Cl)c3cccnc3c2O)cc1 (stereo unspecified) ; inhibition at 25 µM observed: 5.04

====

Listing: inhibition at 25 µM of selected molecules
test system: Mycobacterium tuberculosis; assay: MMV: Screen against Mtb, single point, non replicating, at 25uM; format: functional
Report as: number unit

Reference set, count: 6
[[record]]
molecule = "Oc1c(CN2CCN(c3ccccc3F)CC2)cc(Br)c2cccnc12"
endpoint_name = "inhibition at 25 µM"
recorded_result = "30.2%"

[[record]]
molecule = "COC(=O)c1ccc(C2C3=C(O)CC(c4ccc(F)cc4)CC3=Nc3ccccc3N2C(=O)c2ccccc2)cc1 (stereo unspecified)"
endpoint_name = "inhibition at 25 µM"
recorded_result = "18.9%"

[[record]]
molecule = "O=C(Nc1nc(-c2ccccn2)cs1)c1ccccc1Br"
endpoint_name = "inhibition at 25 µM"
recorded_result = "84.5%"

[[record]]
molecule = "Nc1ccc(-c2nc3cc(Oc4ccc(Oc5ccc6[nH]c(-c7ccc(N)cc7)nc6c5)cc4)ccc3[nH]2)cc1"
endpoint_name = "inhibition at 25 µM"
recorded_result = "11.8%"

[[record]]
molecule = "COc1ccc(CNC2CCN(c3ccc(NC(=O)c4cccc(Cl)c4)cc3)CC2)cc1OC"
endpoint_name = "inhibition at 25 µM"
recorded_result = "19.2%"

[[record]]
molecule = "Fc1ccc2[nH]c3c(NCCCN4CCOCC4)ncnc3c2c1"
endpoint_name = "inhibition at 25 µM"
recorded_result = "13.8%"


Just so you know, measured inhibition at 25 µM for `COc1cccc(NC(=O)Cn2c(C)c(C#N)c3ccccc32)c1` came out at 8.89%

For reference, reported inhibition at 25 µM for `CCc1c(C)c(=N)c2ccccc2n1C` stands at 2.08%

`Cc1ccc(NC(=O)Nc2cccc(Cl)c2)cc1F` has a reported inhibition at 25 µM of 19.7%

inhibition at 25 µM measured on `CN1CCN(c2ccc(Nc3c4ccccc4nc4ccccc34)cc2)CC1` = 44.1%

Briefly, inhibition at 25 µM measured for `CCN(CC)c1cc(C)c2cc(NC(=O)c3cccc(OC)c3)ccc2n1` : 19.7%

====

inhibition at 25 µM values, listed per item
test system: Mycobacterium tuberculosis; test: MMV: Screen against Mtb, single point, non replicating, at 25uM; type: functional
Answer with the figure and its unit, nothing else.

Field: example entries. Status: answers known.
[[record]]
compound = "O=C(Nc1cccc(C2=NCCN2)c1)Nc1cccc(C2=NCCN2)c1"
recorded_result = "11.1%"

[[record]]
compound = "O=C(NC1CCN(Cc2ccccc2)CC1)c1cc2nc(-c3ccc(Cl)s3)cc(C(F)(F)F)n2n1"
recorded_result = "15.3%"


inhibition at 25 µM for `COc1cc(-c2nc(-c3ccccc3)c(-c3ccccc3)[nH]2)cc(OC)c1O` is 18%

`c1ccc2c(NCCCCCCNc3c4c(nc5ccccc35)CCCC4)c3c(nc2c1)CCCC3` has a reported inhibition at 25 µM of 17.8%

Per the record, OC(CNCC1CCCO1)Cn1c2ccc(Cl)cc2c2cc(Cl)ccc21 (stereo not given) has inhibition at 25 µM of 20.4%

====

test system: Mycobacterium tuberculosis; test: MMV: Screen against Mtb, single point, non replicating, at 25uM; type: functional
ENDPOINT NAME: inhibition at 25 µM (%)
Numbers only; they are read as %.

[[record]]
compound = "Cc1ccc(Nc2nc(NCCO)c3ccccc3n2)cc1C"
recorded_result = 7.14

[[record]]
compound = "COc1ccc(-c2cn3c(C(=O)Nc4ccccc4Cl)c(-c4ccccc4)c4c3n2CCCC4)cc1"
recorded_result = 2.56

[[record]]
compound = "CCCCc1c(CCC)c(=N)c2ccccc2n1C"
recorded_result = -5.96


Entry Cc1ccc(N2C(=O)C3C(C2=O)C2(c4ccccc4)C(=O)C3(c3ccccc3)C(c3ccccc3)=C2c2ccccc2)cc1 (stereo not given) , inhibition at 25 µM reported as 4.88

Looking up C=C(C)CCC(C)N1CCC(N2CCC(C(=O)NCCc3ccccc3)CC2)CC1 (stereo not given) , I found its inhibition at 25 µM recorded as 15.2

Record COc1ccc(C(=O)C(CCC(CNC(C)(C)C)C(=O)c2ccc(OC)cc2)CNC(C)(C)C)cc1 (stereo not given) . Reported inhibition at 25 µM: 21

Reported inhibition at 25 µM for Cc1c(C)n(CC(O)CNC2CCCCC2C)c2ccccc12 (stereo not given) was 7.84

Recorded inhibition at 25 µM (compound `Cc1cc(Nc2cccc(F)c2)nc(NCc2ccccc2)n1` ): 5.92

// `O=C(NC1CCCC1)c1ccc(N2CCC(NCc3cccc(C(F)(F)F)c3)CC2)cc1` : inhibition at 25 µM value = 3.83

GET /value?item= `CCOC(=O)C1=CN(C)C=C(C(=O)OCC)C1c1cc(Br)c(OCC)c(OC)c1` &field=inhibition at 25 µM returns 10.7

====

tested on: Mycobacterium tuberculosis; assay: MMV: Screen against Mtb, single point, non replicating, at 25uM; assay type: functional
ENDPOINT NAME: inhibition at 25 µM (%)
# number only, unit % dropped from output

Example entries begin here.
[[record]]
molecule = "Brc1ccc(Nc2nc3ccccc3nc2Nc2ccc(Br)cc2)cc1"
output_unit = "%"
recorded_result = 100

[[record]]
molecule = "COc1ccc2nc(C)cc(Nc3ccccc3O)c2c1"
output_unit = "%"
recorded_result = 7.14

[[record]]
molecule = "COc1cc(OC)cc(N2C(=O)N(Cc3ccc(C(C)(C)C)cc3)c3ccccc3S2(=O)=O)c1"
output_unit = "%"
recorded_result = 13.6

[[record]]
molecule = "CC(C)CCNCC(O)Cn1c2ccccc2c2ccccc21 (stereo unspecified)"
output_unit = "%"
recorded_result = 16.6

[[record]]
molecule = "O=C1c2ccccc2C2=Nc3ccccc3SC(c3cccc(F)c3)C12 (stereo unspecified)"
output_unit = "%"
recorded_result = -5.43


# evaluate next
// inhibition at 25 µM value for OC(Cn1nnc2ccccc21)Cn1c2ccc(Br)cc2c2cc(Br)ccc21 (stereo unspecified) : -5.78
